subject.of.test: Phosphatidylinositol 4,5-bisphosphate 3-kinase catalytic subunit alpha isoform (Homo sapiens, UniProt P42336)
Sequence (P42336 whole entry, canonical isoform): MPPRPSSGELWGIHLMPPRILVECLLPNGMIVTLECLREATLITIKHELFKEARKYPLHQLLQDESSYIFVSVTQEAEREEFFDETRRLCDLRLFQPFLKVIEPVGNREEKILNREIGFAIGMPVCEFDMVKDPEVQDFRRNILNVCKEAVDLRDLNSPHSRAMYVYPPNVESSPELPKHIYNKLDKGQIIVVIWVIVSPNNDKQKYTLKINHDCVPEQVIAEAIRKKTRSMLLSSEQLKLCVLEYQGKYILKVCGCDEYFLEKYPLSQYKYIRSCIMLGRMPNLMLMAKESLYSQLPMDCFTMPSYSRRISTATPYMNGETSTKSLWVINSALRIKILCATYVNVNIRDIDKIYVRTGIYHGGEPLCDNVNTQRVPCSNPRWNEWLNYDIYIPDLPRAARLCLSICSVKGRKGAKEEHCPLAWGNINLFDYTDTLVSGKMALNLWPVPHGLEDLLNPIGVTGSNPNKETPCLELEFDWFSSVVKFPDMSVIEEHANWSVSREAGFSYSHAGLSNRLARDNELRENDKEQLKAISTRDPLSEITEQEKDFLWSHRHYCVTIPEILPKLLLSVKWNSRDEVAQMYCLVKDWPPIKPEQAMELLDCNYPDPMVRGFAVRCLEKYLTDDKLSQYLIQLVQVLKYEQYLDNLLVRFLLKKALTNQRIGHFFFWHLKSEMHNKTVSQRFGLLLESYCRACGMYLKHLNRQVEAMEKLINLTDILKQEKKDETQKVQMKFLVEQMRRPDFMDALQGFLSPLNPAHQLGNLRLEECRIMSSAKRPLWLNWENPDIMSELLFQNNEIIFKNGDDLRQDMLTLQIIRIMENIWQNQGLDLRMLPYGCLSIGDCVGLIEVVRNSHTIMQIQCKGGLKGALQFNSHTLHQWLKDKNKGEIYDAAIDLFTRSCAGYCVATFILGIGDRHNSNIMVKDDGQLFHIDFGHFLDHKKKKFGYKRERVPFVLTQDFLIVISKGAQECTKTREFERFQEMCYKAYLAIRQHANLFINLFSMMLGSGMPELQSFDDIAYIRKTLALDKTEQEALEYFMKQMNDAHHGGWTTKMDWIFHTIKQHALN
protocol.text: Inhibition of PI3K-alpha (unknown origin) assessed as decrease in ATP consumption using phosphatidylinositol bisphosphate and 10 uM ATP as substrate measured after 60 mins by luminescence assay
pIC50: −log10 of the molar value.
Label rule, in plain words: pIC50 of 6 and up is Met, under 6 is Not met.

# structure, assigned.class
records = [
    ("N[C@@H](Cc1ccc(O)cc1)C(=O)N1CCN(c2nc(N3CCOCC3)nc(-n3c(C(F)F)nc4ccccc43)n2)CC1", "Not met"),
    ("NCCCC[C@H](N)C(=O)N1CCN(c2nc(N3CCOCC3)nc(-n3c(C(F)F)nc4ccccc43)n2)CC1", "Not met"),
    ("O=C([C@@H]1CCCN1)N1CCN(c2nc(N3CCOCC3)nc(-n3c(C(F)F)nc4ccccc43)n2)CC1", "Not met"),
    ("CN(C)CC(=O)N1CCN(c2nc(N3CCOCC3)nc(-n3c(C(F)F)nc4ccccc43)n2)CC1", "Not met"),
    ("CC(=O)NCC(=O)N1CCN(c2nc(N3CCOCC3)nc(-n3c(C(F)F)nc4ccccc43)n2)CC1", "Met"),
]
